Origin of the recorded values: patent US9980943B2

System: α7 integrin (LacZ reporter in α7βgal+/− myoblasts)
Assay text: Myoblast α7+/LacZ integrin FDG assay (Burkin assay in myoblasts, 96-well)
Format: cell-based, mouse
Condition description: 0.5 uM; α7+/LacZ myoblasts, 96-well
Measure name: Burkin Assay in Myoblasts, value relative to DMSO

> print(dat)
                                    compound  reported
 1  CCOCCCN1C(=O)CN(C2CCCCCC2)C(=O)C1c1ccc(OC)cc1 (stereo not shown)     1.049
 2  CC(C(=O)Nc1ccc(C#N)cc1)N(C)CC(=O)Nc1cccc(F)c1 (stereo not shown)    0.9467
 3  C[C@H](NS(=O)(=O)c1ccc(Cl)cc1)C(=O)OCC(=O)c1ccc[nH]1    1.0693
 4  Cc1cc(NC(=O)CN2C(=O)/C(=C/c3ccccc3F)SC2=S)no1    0.9597
 5                      O=Cc1cnc(N2CCCCC2)s1    0.8377
 6        O=C(Nc1ccc(Cl)cc1N1CCOCC1)C1CCCCC1     1.056
 7  C[C@H]1CNC(=O)c2c(C(=O)Nc3ccc(CNC(=O)OC(C)(C)C)cc3)ncn21     1.146
 8  O=C(Nc1cc(Br)ccc1O)C1CC(c2ccccc2Cl)=NO1 (stereo not shown)     1.172
 9          O=Cc1ccc(C(=O)OCC(=O)N2CCCC2)cc1     0.996
10  C=CCN(CC=C)C(=O)c1ccc(OC2CCN(S(=O)(=O)N(C)C)CC2)cc1    0.9069

###

# CMV-LACZ in Myotubes, signal relative to DMSO per record follows
Test system: β-galactosidase in CMV-LacZ C2C12 myotubes
Assay text: CMV-LacZ secondary screen in C2C12 myotubes (β-Gal stabilizing assay)
Assay type: cell-based, mouse
Condition description: 1 uM; C2C12 CMV-LacZ myotubes; fold relative to DMSO
Measure name: CMV-LACZ in Myotubes, signal relative to DMSO

> print(dat)
                                    compound  reported
 1      Nc1ncnc(N2CCc3ccccc32)c1[N+](=O)[O-]    0.7752
 2  Cc1ccc(NS(=O)(=O)c2ccc(-c3ccc(=O)[nH]n3)o2)c(C)c1    0.8771
 3   Cc1noc(C)c1COc1ccc(C(=O)NCCc2ccccn2)cc1    1.1000
 4      O=c1[nH]c2ccccc2nc1-c1c[nH]c2ccccc12    0.9886
 5  O=C1CCC(C(=O)N2CCSCC2)CN1Cc1ccc(Cl)cc1 (stereo not drawn)    0.9055
 6  O=S(=O)(NC(=NC1CCCCC1)c1ccccc1F)c1ccccc1    0.8348
 7  CC1(C)Cc2c(cnn2-c2cccc(F)c2)C(NC(=O)CCc2cnccn2)C1 (stereo not drawn)    1.0993
 8  Cc1[nH]c2ccc(F)cc2c1CCN(Cc1ccco1)C(=S)NC(C)(C)C    1.1867
 9         COc1ccccc1C(=O)OCc1ccc2sc(C)nc2c1    0.9648
10  CC(C)(C)c1ccc(C(=O)OCC(=O)Nc2sc3c(c2C#N)CCC3)cc1    0.9676
11  COc1ccc(OC)c(S(=O)(=O)Nc2c(NC3CCCCC3)c3ccccc3oc2=O)c1    0.9933
12  Cn1c(O)c(C(C#N)=C2N=c3ccccc3=N2)c2ccccc21    1.0389
13  Cc1ccc(N2C(=O)C3NN=C(C(=O)OCc4ccccc4)C3C2=O)cc1 (stereo not drawn)    1.0853
14  O=C(CSc1nnc2c(n1)[nH]c1ccccc12)NCc1ccccc1F    1.0381
15  Cc1ccccc1NC(=O)c1ccc2c(O)c(S(=O)(=O)c3ccccc3)c(=O)[nH]c2c1    1.0133
16  Cc1cccc(C)c1NCC(=O)N1CCN(Cc2ccccc2)CC1.Cl    0.9832
17  Cn1cc(CN2CCC(C(=O)Nc3cccc(-c4cscn4)c3)CC2)cn1    0.9618
18  CC(=O)Nc1ccc(-n2c(C)nc(=O)c(-c3ccccc3)c2C)cc1    0.9257
